Data provenance: ChEMBL document CHEMBL3885861

Below, each of the compounds is paired with its reported PT value.
# Organism: Rattus norvegicus
# assay_notes: Open TG-GATES - Regimen: Single
# Type: toxicity, organism-based, Sprague-Dawley
# Design: regimen Single, gender Male, age 6 weeks
# condition_notes: in vivo, po, 0 mg/kg, 9 h, tissue Blood, route gavage, dose level Control

# compound, PT, s
measured = [
    ("ClC(Cl)(Cl)Cl [CARBON TETRACHLORIDE]", 12.2),
    ("O=NN(CCCl)C(=O)NC1CCCCC1 [LOMUSTINE]", 12.5),
    ("CC(C)N(CCC(C(N)=O)(c1ccccc1)c1ccccn1)C(C)C (configuration not stated) [DISOPYRAMIDE]", 15.9),
    ("CCc1oc2ccccc2c1C(=O)c1cc(Br)c(O)c(Br)c1 [BENZBROMARONE]", 12.2),
    ("CC[C@H]1[C@@H]2C[C@H]3[C@@H]4N(C)c5ccccc5[C@]45C[C@@H]([C@@H]2[C@H]5O)N3[C@@H]1O [AJMALINE]", 12.3),
    ("OCCOCCN1CCN(C(c2ccccc2)c2ccc(Cl)cc2)CC1 (configuration not stated) [HYDROXYZINE]", 15.2),
    ("CC1=C(CC(=O)O)c2cc(F)ccc2/C1=C\\c1ccc([S+](C)[O-])cc1 (configuration not stated)", 13.8),
]

---

Recorded Hb values for a group of molecules are listed next.
# Organism: Rattus norvegicus
# assay_notes: Open TG-GATES - Regimen: Single
# Type: toxicity, organism-based, Sprague-Dawley
# Design: regimen Single, gender Male, age 6 weeks
# condition_notes: in vivo, po, 0 mg/kg, 9 h, tissue Blood, route gavage, dose level Control

# molecule, Hb [g/dL]
rows = [
    ("CCC1(c2ccccc2)C(=O)NC(=O)NC1=O", 13.6),
    ("OCCOCCN1CCN(C(c2ccccc2)c2ccc(Cl)cc2)CC1 (stereo not given) [HYDROXYZINE]", 12.9),
    ("ClC(Cl)(Cl)Cl [CARBON TETRACHLORIDE]", 12.6),
    ("CC1=C(CC(=O)O)c2cc(F)ccc2/C1=C\\c1ccc([S+](C)[O-])cc1 (stereo not given)", 13.9),
    ("CN(C)CCC=C1c2ccccc2COc2ccccc21 [DOXEPIN]", 13.2),
]

---

A collection of compounds and their measured Ca
# Species on record: Rattus norvegicus
# assay_notes: Open TG-GATES - Regimen: Daily Repeat
# Type: toxicity, organism-based, Sprague-Dawley
# Set-up: regimen Daily Repeat, gender Male, age 6 weeks
# condition_notes: in vivo, po, 0 mg/kg, […], tissue Plasma, route gavage, dose level Control, time 7 day

# compound, Ca
records = [
    ("CCc1oc2ccccc2c1C(=O)c1cc(Br)c(O)c(Br)c1", "10.3 mg/dL"),
    ("CC1=C(CC(=O)O)c2cc(F)ccc2/C1=C\\c1ccc([S+](C)[O-])cc1 (stereo not given)", "10.9 mg/dL"),
    ("O=NN(CCCl)C(=O)NC1CCCCC1", "10.9 mg/dL"),
    ("CC(C)N(CCC(C(N)=O)(c1ccccc1)c1ccccn1)C(C)C (stereo not given) [DISOPYRAMIDE]", "10.6 mg/dL"),
    ("CN(C)C(=N)N=C(N)N", "11.3 mg/dL"),
]
